Where do these numbers come from? They come from the supplement of paper PMC10515830.

difference in excitability for assorted molecules
Test system: Danio rerio larvae (5 dpf)
Test: difference in excitability vs DMSO (percentage points); higher = more excitable than DMSO
Conditions: 10 µM; exposure time 6 h
Structures can show the parent of a compound that is named as a salt.
Kindly provide the number alone.

molecule | resultValue
CCOC(=O)CC(SP(=S)(OC)OC)C(=O)OCC (centres undefined) | 21.4
CCN(C)C(=O)Oc1cccc([C@H](C)N(C)C)c1 [Rivastigmine (tartrate)] | 0.964
CCN(C(C)=O)c1cccc(-c2ccnc3c(C#N)cnn23)c1 | -3.98

What the record says about O=C(O[C@H]1C[C@H]2CC[C@@H](C1)[N+]21CCCC1)C(O)(c1ccccc1)c1ccccc1 [Trospium (chloride)] : difference in excitability is -11.2

The recorded difference in excitability for C[C@H](N)[C@H](O)c1ccc(O)c(O)c1 is 2.43

For reference, reported difference in excitability for CCOC(=O)c1cncn1[C@H](C)c1ccccc1 [Etomidate] stands at -7.08

# difference in excitability of CC(N)Cc1ccc(O)cc1 (centres undefined) [4-hydroxy Amphetamine (hydrochloride)] = 2.21

Reported difference in excitability of COc1cc2c(cc1OC)C1CC(=O)C(CC(C)C)CN1CC2 (centres undefined) : 25.1

For reference, reported difference in excitability for COc1ccc2c(c1)[C@]13CCCC[C@@H]1[C@H](C2)N(C)CC3 [Dextromethorphan (hydrobromide hydrate)] stands at 18.6
